Biological target: Full-length PRMT5 enzyme (NCBI Reference sequence NP_006100.2) co-expressed with His6-MEP50 (Homo sapiens (Human), UniProt O14744)
Sequence (O14744 whole entry): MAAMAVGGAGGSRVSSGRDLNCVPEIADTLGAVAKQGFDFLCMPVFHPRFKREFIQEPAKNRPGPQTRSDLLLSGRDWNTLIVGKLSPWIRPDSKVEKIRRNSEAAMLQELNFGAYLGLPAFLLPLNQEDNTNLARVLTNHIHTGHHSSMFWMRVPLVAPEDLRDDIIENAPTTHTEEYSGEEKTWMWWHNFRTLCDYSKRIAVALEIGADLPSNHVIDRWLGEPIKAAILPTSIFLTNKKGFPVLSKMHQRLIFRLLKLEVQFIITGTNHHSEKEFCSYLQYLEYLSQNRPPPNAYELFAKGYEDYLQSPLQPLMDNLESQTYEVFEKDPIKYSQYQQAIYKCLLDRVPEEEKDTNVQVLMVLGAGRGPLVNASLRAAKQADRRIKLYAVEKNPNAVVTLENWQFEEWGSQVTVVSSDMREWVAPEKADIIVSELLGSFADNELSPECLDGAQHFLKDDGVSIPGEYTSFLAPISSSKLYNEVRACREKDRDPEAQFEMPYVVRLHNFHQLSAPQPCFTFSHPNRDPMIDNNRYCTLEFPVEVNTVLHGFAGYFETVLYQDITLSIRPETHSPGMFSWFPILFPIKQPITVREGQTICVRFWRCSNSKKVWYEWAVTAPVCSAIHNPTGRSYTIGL
Sequence (Q9BQA1 whole entry partner): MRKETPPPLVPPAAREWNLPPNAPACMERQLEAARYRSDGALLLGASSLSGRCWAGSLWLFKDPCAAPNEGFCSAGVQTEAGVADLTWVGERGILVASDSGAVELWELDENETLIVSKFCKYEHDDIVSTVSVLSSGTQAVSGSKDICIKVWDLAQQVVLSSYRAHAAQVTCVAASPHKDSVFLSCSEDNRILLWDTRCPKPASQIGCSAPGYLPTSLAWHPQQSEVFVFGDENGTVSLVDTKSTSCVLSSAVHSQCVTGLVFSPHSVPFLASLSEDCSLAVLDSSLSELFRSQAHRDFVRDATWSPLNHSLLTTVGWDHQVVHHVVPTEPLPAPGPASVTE
Test: Revised PRMT5 Biochemical Assay
Details: 1 μM peptide substrate, 1 μM S-Adenosyl methionine, 4 hours at 37 degree Celsius, Transcreener EPIGEN fluorescence polarisation
Where a name gives a salt, the structure may show the parent alone.
parameter: IC50 (nM)

1. CC(=O)N1CCC(NC(=O)c2ccc(C(=O)NC[C@@H](O)[C@@H]3Cc4ccccc4CN3)cc2)CC1 = 152
2. CS(=O)(=O)N1CCC(NC(=O)c2ccc(C(=O)NC[C@@H](O)[C@@H]3Cc4ccccc4CN3)cc2)CC1 [Example 34, hydrochloride] = 1680
3. O=C(NC[C@@H](O)[C@@H]1Cc2ccccc2CN1)c1ccc(-c2nnc(N3CCOCC3)o2)cc1 = 551
4. O=C(NC[C@@H](O)[C@@H]1Cc2ccccc2CN1)c1ccc(C(=O)N2CCC(CO)CC2)cc1 = 511
5. COc1cc(C(=O)NC[C@@H](O)[C@@H]2Cc3ccccc3CN2)ccn1 [Example 71, dihydrochloride] = 939
6. O=C(NC[C@@H](O)[C@@H]1Cc2ccccc2CN1)c1ccnc(C2CCOCC2)c1 [Example 73, dihydrochloride] = 2270
7. O=C(NC[C@@H](O)[C@@H]1Cc2ccccc2CN1)c1cnn(-c2cccnc2)c1 [Example 17, dihydrochloride salt] = 1270
8. CCOc1cc(C(=O)N2C3CCCC2COC3)ccc1C(=O)NC[C@@H](O)[C@@H]1Cc2ccccc2CN1 = 16
9. O=C(NC[C@@H](O)[C@@H]1Cc2ccccc2CN1)c1ccc(Cl)cc1 = 192
10. O=C(NC[C@@H](O)[C@@H]1Cc2ccccc2CN1)c1ccc2[nH]nnc2c1 [Example 114, dihydrochloride] = 5490
11. O=C(NC[C@@H](O)[C@@H]1Cc2ccccc2CN1)c1ccnc(OC2CCOC2)c1 (stereo partly drawn) [Example 104, bis(2,2,2-trifluoroacetate)] = 147
12. COC(=O)N1CCC(Oc2cc(C(=O)NC[C@@H](O)[C@@H]3Cc4ccccc4CN3)ccn2)CC1 = 44
13. O=C(NC[C@@H](O)[C@@H]1Cc2ccccc2CN1)c1ccc(C(=O)N2CCC(O)C2)cc1 (stereo partly drawn) = 3370
14. O=C(NC[C@@H](O)[C@@H]1Cc2ccccc2CN1)c1ccc(C(=O)N2C3CCC2CC3)cc1 = 123
15. O=C(NC[C@@H](O)[C@@H]1Cc2ccccc2CN1)c1ccc(C(=O)N2C3CCC2COC3)cc1Cl = 65
16. O=C(NC[C@@H](O)[C@@H]1Cc2ccccc2CN1)c1cc(NC2COC2)ncn1 = 546
17. O=C(NC[C@@H](O)[C@@H]1Cc2ccccc2CN1)c1cccc(-c2cncnc2)c1 = 2100
18. Nc1ccc(C(=O)NC[C@@H](O)[C@@H]2Cc3ccccc3CN2)cn1 [Example 111, dihydrochloride] = 4670
19. CC(NC(=O)c1ccc(C(=O)N2CCOCC2)cc1)[C@@H](O)[C@@H]1Cc2ccccc2CN1 (stereo partly drawn) [Example 109, hydrochloride] = 688
20. O=C(NC[C@@H](O)[C@@H]1Cc2ccccc2CN1)c1ccc(C(=O)NC2CCC(F)(F)CC2)cc1 = 1240
21. O=C(NC[C@@H](O)[C@@H]1Cc2ccccc2CN1)c1ccnc(OC2CCN(CC(F)(F)F)CC2)c1 = 70
22. O=C(NC[C@@H](O)[C@@H]1Cc2ccccc2CN1)c1ccc(C(=O)N2CCS(=O)(=O)CC2)cc1 = 105
23. CN1CCN(C(=O)c2ccc(C(=O)NC[C@@H](O)[C@@H]3Cc4ccccc4CN3)cc2)CC1=O = 1390
24. O=C(NC[C@@H](O)[C@@H]1Cc2ccccc2CN1)c1ccc(C(=O)N2C3CCC2COC3)cc1F [Example 81, hydrochloride] = 51
25. COc1ccccc1C(=O)NC[C@@H](O)[C@@H]1Cc2ccccc2CN1 = 20000
26. CCS(=O)(=O)N1CCN(C(=O)c2ccc(C(=O)NC[C@@H](O)[C@@H]3Cc4ccccc4CN3)cc2)CC1 = 305
27. O=C(NC[C@@H](O)[C@@H]1Cc2ccccc2CN1)c1cccc(C(=O)N2CCOCC2)c1 = 3690
28. CCOc1cc(C(=O)N2C3CCC2COC3)ccc1C(=O)NC[C@@H](O)[C@@H]1Cc2ccc(C)cc2CN1 = 17
29. O=C(NC[C@@H](O)[C@@H]1Cc2ccccc2CN1)c1ccc(C(=O)N2CCCC(O)C2)cc1 (stereo partly drawn) = 967
30. O=C(NC[C@@H](O)[C@@H]1Cc2ccccc2CN1)c1ccc2[nH]ncc2c1 [Example 112, dihydrochloride] = 2310
